These data points were gathered from patent US20160002247A1.

Molecular target: Human autotaxin enzyme (Homo sapiens)
Construct: purchased R&D System
Assay: Evaluation of autotaxin inhibitor, Method C (Test Example 3): 18:0 Lyso PC, choline assay, Resorufin fluorescence
Assay type: biochemical
Conditions: Assay Method C (Test Example 3), human autotaxin, 18:0 Lyso PC substrate; read-out: Inhibitory Activity (autotaxin enzyme inhibitory activity, IC50 class)
This section presents molecules with their documented IC50 values.

[
  {
    "CHEMICAL STRUCTURE": "Cn1c(N2CCC[C@H]2C(=O)NCC(=O)O)cc(=O)n2cc(-c3ccc(Cl)cc3)nc12",
    "EXPERIMENTAL SYSTEM": "Human autotaxin enzyme (Homo sapiens)",
    "IC50": "> 1000 nM"
  },
  {
    "CHEMICAL STRUCTURE": "NC(=O)c1ccc(-c2cc(=O)n3cc(-c4ccc(Cl)cc4)nc3n2CCCC(F)(F)F)cc1",
    "EXPERIMENTAL SYSTEM": "Human autotaxin enzyme (Homo sapiens)",
    "IC50": "10 to 100 nM"
  },
  {
    "CHEMICAL STRUCTURE": "CCCCCn1c(N2CCC[C@@H]2CC(=O)O)cc(=O)n2cc(-c3ccc(Cl)cc3)nc12",
    "EXPERIMENTAL SYSTEM": "Human autotaxin enzyme (Homo sapiens)",
    "IC50": "100 to 1000 nM"
  },
  {
    "CHEMICAL STRUCTURE": "CCCCCn1c(-c2ccc(C(=O)NCc3ccccn3)cc2)cc(=O)n2cc(-c3ccc(Cl)cc3)nc12",
    "EXPERIMENTAL SYSTEM": "Human autotaxin enzyme (Homo sapiens)",
    "IC50": "10 to 100 nM"
  },
  {
    "CHEMICAL STRUCTURE": "O=c1cc(Cl)[nH]c2nc([C@H]3CC[C@H](C(F)(F)F)CC3)cn12",
    "EXPERIMENTAL SYSTEM": "Human autotaxin enzyme (Homo sapiens)",
    "IC50": "> 1000 nM"
  }
]

Q) Any idea what IC50 was measured for CCCCCn1c(N2CCC[C@H]2C(=O)N[C@@H](Cc2c[nH]cn2)C(=O)O)cc(=O)n2cc(-c3ccc(Cl)cc3)nc12 ?
A) 10 to 100 nM

Q) Any idea what IC50 was measured for CCCCCn1c(-c2ccc(C(=O)NC3CCS(=O)(=O)CC3)cc2)cc(=O)n2cc(-c3ccc(Cl)cc3)nc12 ?
A) 10 to 100 nM

###

Molecular target: Human autotaxin enzyme (Homo sapiens)
Construct: purchased R&D System
Assay: Evaluation of autotaxin inhibitor, Method C (Test Example 3): 18:0 Lyso PC, choline assay, Resorufin fluorescence
Type: biochemical
Settings: Assay Method C, human autotaxin, 18:0 Lyso PC substrate; read-out: Inhibitory Activity
pIC50: −log10 of the molar value.
This section presents molecules with their documented pIC50 values.

As a guide, the following entries are already answered.
[
  {
    "MOLECULE": "CCCCC(C(C)=O)n1cc(Cc2cccc(C(=O)O)c2)c(=O)n2cc(-c3ccc(Cl)cc3)nc12 (centres unmarked) [Compound 825]",
    "EXPERIMENTAL ENDPOINT": "pIC50",
    "MEASURED VALUE": "< 6.00"
  },
  {
    "MOLECULE": "CCCCCn1c(N2CCC[C@H]2C(=O)Nc2ccc(Oc3nn[nH]n3)cc2)cc(=O)n2cc(-c3ccc(Cl)cc3)nc12 [Compound 796]",
    "EXPERIMENTAL ENDPOINT": "pIC50",
    "MEASURED VALUE": "6.00 to 7.00"
  },
  {
    "MOLECULE": "NC(=O)CNC(=O)Cc1cn(CCCC(F)(F)F)c2nc(-c3ccc(Cl)cc3)cn2c1=O [Compound 841]",
    "EXPERIMENTAL ENDPOINT": "pIC50",
    "MEASURED VALUE": "< 6.00"
  },
  {
    "MOLECULE": "CCCCCn1c(N2CCC[C@H]2C(=O)NCC(O)CC(F)(F)F)cc(=O)n2cc(-c3ccc(Cl)cc3)nc12 (some centres unmarked) [Compound 786]",
    "EXPERIMENTAL ENDPOINT": "pIC50",
    "MEASURED VALUE": "6.00 to 7.00"
  }
]

Q) Any idea what pIC50 was measured for CNC(=O)Cc1cn(CCCC(F)(F)F)c2nc(-c3ccc(Cl)cc3)cn2c1=O [Compound 851] ?
A) 6.00 to 7.00

Q) Any idea what pIC50 was measured for CONC(=O)Cc1cn(CCCC(F)(F)F)c2nc(-c3ccc(Cl)cc3)cn2c1=O [Compound 845] ?
A) 6.00 to 7.00

Q) Any idea what pIC50 was measured for CCCCCn1c(N2CCCCC2CCN2CCOCC2)cc(=O)n2cc(-c3ccc(Cl)cc3)nc12 (centres unmarked) [Compound 805] ?
A) 6.00 to 7.00

Q) Any idea what pIC50 was measured for CCCCCn1c(N2CCCCC2CNC(=O)OC(C)(C)C)cc(=O)n2cc(-c3ccc(Cl)cc3)nc12 (centres unmarked) [Compound 806] ?
A) < 6.00
